assay: chemical genetic growth profiling, strain panel (AID 1159580);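 note: tested at 20 µM; growth read once vehicle control cultures reached saturation at 30 °C; 1 = growth at the plate median or of vehicle wells; lower values mean less growth of the strain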; details: S. cerevisiae deletion strains, growth OD, locus YOR136W, strain idh2
About 2,000 (36%) of roughly 5,500 compounds were called active. Not shown: some 18% with an inconclusive outcome. Cut-off read from the data, not from the text of the source: active = normalized growth mostly below about 0.91 (no sharp cut-off); inconclusive = no clear call, values can overlap the other calls; inactive = mostly above about 0.92. Some of the results follow.
I would appreciate it if you answered using one of these outcomes: 1.0 for active, 0.0 for inactive

// return assay outcome for `O=c1c(O)cc([C@H]2Oc3cc(O)cc(O)c3C[C@H]2O)cc2c([C@H]3Oc4cc(O)cc(O)c4C[C@H]3O)cc(O)c(O)c12`
0.0

Item: C[C@H]1[C@H](C)CC[C@]2(C(=O)O)CC[C@]3(C)C(=CCC4[C@@]5(C)C[C@@H](O)[C@H](O)[C@@](C)(CO)C5[C@H](O)C[C@]43C)[C@H]12 (stereo partly drawn)
0.0

Item: NS(=O)(=O)c1cc2c(cc1C(F)(F)F)NC(Cc1ccccc1)NS2(=O)=O (stereo not drawn)
0.0

Item: `COc1ccc(-c2cc(=O)c3c(O)cc(O)c(-c4cc(-c5cc(=O)c6c(O)cc(O)cc6o5)ccc4OC)c3o2)cc1`
0.0

Item: `COc1cc(C(=O)N2CCOCC2)cc(OC)c1OC`
1.0

Item: COC1=CC(C)[C@@H]2C[C@H]3OC(=O)C[C@H]4C(C)=C(OC)C(=O)C([C@@]34C)[C@@]2(C)C1=O (stereo partly drawn)
0.0

Item: CCOC(=O)CC(SP(=S)(OC)OC)C(=O)OCC (stereo not drawn)
0.0

Item: `Nc1nc(/C(=C/CC(=O)O)C(=O)N[C@@H]2C(=O)N3C(C(=O)O)=CCS[C@H]23)cs1`
0.0

----------
assay: chemical genetic growth profiling, strain panel (AID 1159580); settings: S. cerevisiae deletion strains, growth OD, locus YGL167C, strain pmr1, stronger effect = lower value
The campaign covered roughly 5,500 compounds. About 2,000 (36%) were called active. Inconclusive results (about 18%) are left out. Some of the results follow.
readout.label: normalized growth
// no unit, no text: just the number

Report normalized growth for CC1(C)O[C@@H]2CC3C4C[C@H](F)C5=CC(=O)CC[C@]5(C)C4[C@@H](O)C[C@]3(C)[C@]2(C(=O)CO)O1 (some centres undefined) please.
0.996

Item: `COc1ccc(-c2cc(=O)c3c(O)c(OC)c(O[C@H]4O[C@H](CO[C@@H]5O[C@@H](C)[C@H](O)[C@@H](O)[C@H]5O)[C@@H](O)[C@H](O)[C@H]4O)cc3o2)cc1`
0.983

Item: `COc1ccc(-c2cc(=O)c3c(O)c(OC)c(OC)c(OC)c3o2)cc1OC`
0.992

Item: `CC[C@@]1(O)C(=O)OCc2c1cc1n(c2=O)Cc2cc3cc(O)ccc3nc2-1`
1.01

----------
experiment: chemical genetic growth profiling, strain panel (AID 1159580); conditions: S. cerevisiae deletion strains, growth OD, locus YNR052C, strain pop2, stronger effect = lower value
The whole screen tested about 5,500 compounds, of which about 2,000 (36%) were called active. Another 18% or so got no clear call; they are omitted. Some of the results follow.
Consider the cut-off 1. If the recorded normalized growth is strictly smaller, the label is label 1; if not, the label is label 0.

normalized growth strictly < 1 for this compound? `O=C(/C=C(\O)c1ccccc1)c1ccccc1O`
label 1

Item: C/C=C/CC(C)C(O)C1C(=O)NC(CC)C(=O)N(C)CC(=O)N(C)C(CC(C)C)C(=O)NC(C(C)C)C(=O)N(C)C(CC(C)C)C(=O)NC(C)C(=O)NC(C)C(=O)N(C)C(CC(C)C)C(=O)N(C)C(CC(C)C)C(=O)N(C)C(C(C)C)C(=O)N1C (stereo not given)
label 0

----------
assay: chemical genetic growth profiling, strain panel (AID 1159580);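 note: tested at 20 µM; growth read once vehicle control cultures reached saturation at 30 °C; 1 = growth at the plate median or of vehicle wells; lower values mean less growth of the strain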; conditions: S. cerevisiae deletion strains, growth OD, locus YOL147C, strain pex11, stronger effect = lower value
About 2,000 (36%) of roughly 5,500 compounds were called active. About 18% were inconclusive and are not listed. The list shows a part of the results.
Task for the reader: assign each of the following molecules its reported normalized growth.
// no unit, no text: just the number

Report normalized growth for CC(=O)[C@@]1(O)CCC2C3C=C(Cl)C4=CC(=O)[C@@H]5CC5[C@]4(C)C3CC[C@@]21C (stereo not given in full) please.
1

Item: `CC1=CC(=O)C(C(C)C)=CC1=O`
0.872

Item: `C[N+]1(C)C[C@H](O)[C@H](C(=O)[O-])C1`
1

Item: COC(=O)C[C@H]1C(C)(C)[C@@H](O)[C@@H]2CC3=C4CC(O)O[C@@H](c5ccoc5)[C@]4(C)CCC3[C@@]1(C)C2=O (stereo not given in full)
0.985

Item: `CCn1nc(C(=O)O)c(=O)c2cc3c(cc21)OCO3`
1.01

----------
assay: chemical genetic growth profiling, strain panel (AID 1159580);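 note: tested at 20 µM; growth read once vehicle control cultures reached saturation at 30 °C; 1 = growth at the plate median or of vehicle wells; lower values mean less growth of the strain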; conditions: S. cerevisiae deletion strains, growth OD, locus YMR223W, strain ubp8, stronger effect = lower value
Out of some 5,500 compounds screened, about 2,000 (36%) were called active. Not shown: some 18% with an inconclusive outcome. This is one part of the list.
readout.label: normalized growth

Report normalized growth for `COc1cc(C(=O)N2CCOCC2)cc(OC)c1OC` please.
0.0851 (active)

Item: CC1Cc2ccccc2N1NC(=O)c1ccc(Cl)c(S(N)(=O)=O)c1 (configuration not stated)
0.977 (inactive)

Item: `COc1cccc2c1CCC1=CC(=O)CC[C@@]12C`
0.964 (inactive)

Item: `CCn1nc(C(=O)O)c(=O)c2cc3c(cc21)OCO3`
1.03 (inactive)

Item: `CC(=O)Oc1ccccc1C(=O)Oc1ccccc1C(=O)O`
0.969 (inactive)

Item: COC1=CC(C)[C@@H]2C[C@H]3OC(=O)C[C@H]4C(C)=C(OC)C(=O)C([C@@]34C)[C@@]2(C)C1=O (some centres not stated)
1.01 (inactive)

Item: CCOC(=O)CC(SP(=S)(OC)OC)C(=O)OCC (configuration not stated)
1.01 (inactive)

Item: NC[C@H]1O[C@H](OC2[C@@H](N)C[C@@H](N)[C@H](O[C@H]3O[C@H](CO)[C@@H](O)[C@H](N)[C@H]3O)[C@H]2O)[C@H](O)[C@@H](O)[C@@H]1O (some centres not stated)
0.957 (inactive)

Item: `CC1=CC(=O)C(C(C)C)=CC1=O`
0.847 (active)

Item: `CCOC(=O)C1=C(O)C(=O)N(Cc2ccccc2)C1`
1.03 (inactive)

Item: `C[C@]12CCC(=O)C=C1CCc1ccc(O)cc12`
0.988 (inactive)

Item: Oc1ccc2c3c1OC1[C@@H](O)CC[C@@]4(O)[C@@H](C2)N(CC2CCC2)CC[C@]314 (some centres not stated)
1.01 (inactive)

Item: COC(=O)C(N)CS (configuration not stated)
0.965 (inactive)

Item: COC1CC(O[C@H]2CC[C@]3(C=O)C4CC[C@]5(C)C(C6=CC(=O)OC6)CC[C@]5(O)C4CC[C@]3(O)C2)OC(C)C1O (some centres not stated)
0.995 (inactive)

Item: `N#Cc1c(Cl)cccc1Cl`
1.01 (inactive)

Item: `COc1c(O)cc2c(c1O)[C@H]1O[C@H](CO)[C@@H](O)[C@H](O)[C@@H]1OC2=O`
0.993 (inactive)

Item: `Cc1ccc(C(C)C)c(O)c1C(=O)O`
0.972 (inactive)

Item: `COc1cc(C(=O)O)cc(OC)c1OC`
1.02 (inactive)

Item: `NC[C@H]1O[C@H](O[C@H]2[C@H](O)[C@@H](O[C@H]3O[C@H](CO)[C@@H](O)[C@H](N)[C@H]3O)[C@H](N)C[C@@H]2N)[C@H](N)[C@@H](O)[C@@H]1O`
1.02 (inactive)

Item: NCC(O)CC(=O)O (configuration not stated)
1 (inactive)

Item: `O=c1c(O)cc([C@H]2Oc3cc(O)cc(O)c3C[C@H]2O)cc2c([C@H]3Oc4cc(O)cc(O)c4C[C@H]3O)cc(O)c(O)c12`
1 (inactive)

Item: CC(C)=CC1C(CO)C1(C)C (configuration not stated)
1.01 (inactive)

----------
Task for the reader: assign each of the following molecules its reported normalized growth.
experiment: chemical genetic growth profiling, strain panel (AID 1159580);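 note: tested at 20 µM; growth read once vehicle control cultures reached saturation at 30 °C; 1 = growth at the plate median or of vehicle wells; lower values mean less growth of the strain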; conditions: S. cerevisiae deletion strains, growth OD, locus YJR016C, strain ILV3, stronger effect = lower value
The whole screen tested about 5,500 compounds, of which about 2,000 (36%) were called active. Not shown: some 18% with an inconclusive outcome. This is one part of the list.
// no unit, no text: just the number

Report normalized growth for `COc1ccc(N=C2SCC(c3ccc(C)cc3)=NN2CCO)cc1` please.
0.979

Item: `O=C(O/N=C1/CCCc2[nH]c3ccccc3c21)c1ccc(Cl)cc1Cl`
0.964

Item: `O=C(NNc1cc(C(F)(F)F)cc(C(F)(F)F)c1)c1cnc2n(c1=O)CCS2`
0.99

Item: `N#Cc1ccc2[nH]cc(CCN(Cc3ccccc3)Cc3ccccc3)c2c1`
0.991

Item: `CC1(C)C=Cc2cc(/C(N)=N\OC(=O)Nc3cccc(C(F)(F)F)c3)ccc2O1`
0.975
